molecular target: P2Y purinoceptor 14 (Homo sapiens); conditions: HEK293, filed as antagonist, dose 100.0 nM
Description: Antagonist activity at P2Y14R (unknown origin) stably expressed in HEK293 cells assessed as inhibition of forskolin-induced cAMP production at 100 nM by cAMP-Glo assay relative to control
Endpoint Name: inhibition (%)

>  <Input Smiles>
Cc1ccc(C(=O)Nc2cc(C(=O)O)sc2Oc2ccc(C)nc2)cc1

>  <inhibition (%)>
99.4

$$$$
>  <Input Smiles>
Cc1ccc(C(=O)Nc2cc(C(=O)O)sc2Oc2cccc(F)c2)cc1

>  <inhibition (%)>
69.6

$$$$
>  <Input Smiles>
COc1ccc(Oc2sc(C(=O)O)cc2NC(=O)c2ccc(C)cc2)cc1

>  <inhibition (%)>
69.8

$$$$

a: Cc1ccc(C(=O)Nc2cc(C(=O)O)sc2Oc2ccsn2)cc1
b: Cc1ccc(Sc2sc(C(=O)O)cc2NC(=O)c2ccc(C)cc2)cc1
c: Cc1ccc(C(=O)Nc2cc(C(=O)O)sc2Oc2ccccc2Cl)cc1
Exam item: Returns the items ordered by inhibition, from maximum to minimum. Order the labels as requested and list them.
Marked response: b, a, c
(b: 88.4%, a: 60.3%, c: 40.4%)

P: CCc1ccc(Oc2sc(C(=O)O)cc2NC(=O)c2ccc(C)cc2)cc1
Q: COc1ccc(C(=O)Nc2cc(C(=O)O)sc2Oc2ccc(C)nc2)cc1
Exam item: Lab note: check whether P or Q shows the higher recorded inhibition. Pick one and reply with its label.
Marked response: Q

1: CCc1ccc(C(=O)Nc2cc(C(=O)O)sc2Oc2ccc(C)nc2)cc1
2: Cc1ccc(C(=O)Nc2cc(C(=O)O)sc2Oc2ccc(C)cn2)cc1
3: Cc1ccc(Nc2sc(C(=O)O)cc2NC(=O)c2ccc(C)cc2)cc1
Exam item: With regard to inhibition, arrange the entries in ascending order, please. Order the labels as requested and list them.
Marked response: 3, 1, 2
(3: 41.7%, 1: 59.8%, 2: 90.6%)

###

molecular target: P2Y purinoceptor 14 (Homo sapiens); conditions: HEK293, filed as antagonist, dose 100.0 nM
Endpoint Name: inhibition (%)

Example compounds with recorded inhibition:
>  <Input Smiles>
C#Cc1ccc(C(=O)Nc2cc(C(=O)O)sc2Oc2ccc(C)nc2)cc1

>  <inhibition [%]>
116

$$$$
>  <Input Smiles>
Cc1ccc(C(=O)Nc2cc(C(=O)O)sc2Oc2ccccc2)cc1

>  <inhibition [%]>
42.3

$$$$
>  <Input Smiles>
Cc1ccc(C(=O)Nc2cc(C(=O)O)sc2Oc2ccccc2C(F)(F)F)cc1

>  <inhibition [%]>
57.1

$$$$
>  <Input Smiles>
Cc1ccc(Oc2sc(C(=O)O)cc2NC(=O)c2ccc(N(C)C)cc2)cn1

>  <inhibition [%]>
40.8

$$$$
>  <Input Smiles>
Cc1ccc(C(=O)Nc2cc(C(=O)O)sc2Oc2ccc(S(C)(=O)=O)cc2)cc1

>  <inhibition [%]>
62.8

$$$$

P: Cc1ccc(C(=O)Nc2cc(C(=O)O)sc2Oc2ccc(F)cn2)cc1
Q: Cc1ccc(Oc2sc(C(=O)O)cc2NC(=O)c2cnn(C)c2)cn1
Exam item: Lab note: check whether P or Q shows the higher recorded inhibition. Pick one and reply with its label.
Marked response: P
(P: 130%, Q: 42.8%)

###

assay: Aqueous solubility of compound in double distilled water at pH 7 by spectrometry; format: physicochemical; conditions: buffer
Endpoint Name: solubility (µg/mL)

Example compounds with recorded solubility:
>  <Input Smiles>
Cc1ccc(C(=O)Nc2cc(C(=O)O)nn2Cc2ccc(F)cc2)cc1

>  <solubility [µg/mL]>
0.088

$$$$
>  <Input Smiles>
Cc1ccc(C(=O)Nc2cc(C(=O)O)cc(-c3ccoc3)c2)cc1

>  <solubility [µg/mL]>
0.078

$$$$
>  <Input Smiles>
Cc1ccc(C(=O)Nc2cc(C(=O)O)sc2Oc2ccc(C)nc2)cc1

>  <solubility [µg/mL]>
0.067

$$$$

1: Cc1ccc(C(=O)Nc2cc(C(=O)O)sc2Oc2ccc(F)cn2)cc1
2: Cc1ccc(C(=O)Nc2cc(C(=O)O)sc2Oc2ccc(F)nc2)cc1
Exam item: Lab note: check whether 1 or 2 shows the higher recorded solubility. Pick one and reply with its label.
Marked response: 1

A: COc1ccc(C(=O)Nc2cc(C(=O)O)sc2Oc2ccc(C)nc2)cc1
B: Cc1ccc(C(=O)Nc2cc(C(=O)O)sc2Oc2ccc(C)cn2)cc1
Exam item: Lab note: check whether A or B shows the higher recorded solubility. Pick one and reply with its label.
Marked response: A
(A: 0.063 µg/mL, B: 0.039 µg/mL)

###

molecular target: UniProt:P51582; assay: Inhibition of P2Y4R (unknown origin) expressed in HEK293 cells assessed as decrease in IP3 production
Sequence (P51582 whole entry): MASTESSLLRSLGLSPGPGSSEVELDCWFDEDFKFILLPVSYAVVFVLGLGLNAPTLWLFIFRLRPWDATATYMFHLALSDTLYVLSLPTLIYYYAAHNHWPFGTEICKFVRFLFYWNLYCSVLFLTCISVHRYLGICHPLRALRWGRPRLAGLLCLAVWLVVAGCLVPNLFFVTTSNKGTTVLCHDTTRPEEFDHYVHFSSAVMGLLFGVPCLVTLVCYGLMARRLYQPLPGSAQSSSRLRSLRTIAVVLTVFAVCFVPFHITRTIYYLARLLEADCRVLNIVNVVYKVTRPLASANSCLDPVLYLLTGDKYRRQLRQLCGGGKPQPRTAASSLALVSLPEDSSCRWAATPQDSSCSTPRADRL
Endpoint Name: IC50 (µM)
Give a bare numeral; the unit µM is implied.

Exam item: IC50 lookup needed for O=C(C1CC1)N1CCc2cc(Br)c(S(=O)(=O)Nc3ccc(C(F)(F)F)c(Cl)c3)cc21 , thanks.
Marked response: 13

###

experiment: Aqueous solubility of compound in SGF at pH 1.2 by spectrometry; type: ADME; conditions: SGF, read-out: solubility
Endpoint Name: solubility (µg/mL)

Example compounds with recorded solubility:
>  <Input Smiles>
Cc1ccc(C(=O)Nc2cc(C(=O)O)sc2Oc2ccc(C)nc2)cc1

>  <solubility / µg/mL>
0.844

$$$$
>  <Input Smiles>
Cc1ccc(C(=O)Nc2cc(C(=O)O)sc2Oc2ccc(C)cn2)cc1

>  <solubility / µg/mL>
0.03

$$$$
>  <Input Smiles>
Cc1ccc(C(=O)Nc2cc(C(=O)O)sc2Oc2ccc(F)cn2)cc1

>  <solubility / µg/mL>
0.051

$$$$

A: Cc1ccc(C(=O)Nc2cc(C(=O)O)sc2Oc2ccc(F)nc2)cc1
B: COc1ccc(C(=O)Nc2cc(C(=O)O)sc2Oc2ccc(C)nc2)cc1
Exam item: Between item A and item B , which reported solubility is smaller? Pick one and reply with its label.
Marked response: A
(A: 0.036 µg/mL, B: 2.26 µg/mL)

###

biological target: P2Y purinoceptor 14 (Homo sapiens); settings: HEK293, filed as antagonist, dose 100.0 nM
Endpoint Name: inhibition (%)

>  <Input Smiles>
Cc1ccc(C(=O)Nc2cc(C(=O)O)sc2Oc2ccc(C(=O)O)cc2)cc1

>  <Tested System>
P2Y purinoceptor 14 (Homo sapiens)

>  <Unit String>
%

>  <inhibition>
44.1

$$$$
>  <Input Smiles>
COc1cccc(Oc2sc(C(=O)O)cc2NC(=O)c2ccc(C)cc2)c1

>  <Tested System>
P2Y purinoceptor 14 (Homo sapiens)

>  <Unit String>
%

>  <inhibition>
63.2

$$$$
>  <Input Smiles>
Cc1ccc(C(=O)Nc2cc(C(=O)O)sc2Oc2cccc(C)c2)cc1

>  <Tested System>
P2Y purinoceptor 14 (Homo sapiens)

>  <Unit String>
%

>  <inhibition>
55.8

$$$$
>  <Input Smiles>
Cc1ccc(Oc2sc(C(=O)O)cc2NC(=O)c2ccc(F)cc2)cn1

>  <Tested System>
P2Y purinoceptor 14 (Homo sapiens)

>  <Unit String>
%

>  <inhibition>
46.6

$$$$
>  <Input Smiles>
Cc1ccc(Oc2sc(C(=O)O)cc2NC(=O)c2cnc(C)nc2)cn1

>  <Tested System>
P2Y purinoceptor 14 (Homo sapiens)

>  <Unit String>
%

>  <inhibition>
83.9

$$$$
>  <Input Smiles>
Cc1ccc(C(=O)Nc2cc(C(=O)O)sc2Oc2ccc(F)cc2)cc1

>  <Tested System>
P2Y purinoceptor 14 (Homo sapiens)

>  <Unit String>
%

>  <inhibition>
74.8

$$$$
>  <Input Smiles>
Cc1ccc(Oc2sc(C(=O)O)cc2NC(=O)c2ccc(C(C)C)cc2)cn1

>  <Tested System>
P2Y purinoceptor 14 (Homo sapiens)

>  <Unit String>
%

>  <inhibition>
44.3

$$$$
>  <Input Smiles>
Cc1ccc(Oc2sc(C(=O)O)cc2NC(=O)c2cnc(C)cn2)cn1

>  <Tested System>
P2Y purinoceptor 14 (Homo sapiens)

>  <Unit String>
%

>  <inhibition>
71

$$$$
>  <Input Smiles>
Cc1ccc(C(=O)Nc2cc(C(=O)O)sc2Oc2cccnc2)cc1

>  <Tested System>
P2Y purinoceptor 14 (Homo sapiens)

>  <Unit String>
%

>  <inhibition>
62

$$$$
>  <Input Smiles>
CC(=O)Nc1ccc(Oc2sc(C(=O)O)cc2NC(=O)c2ccc(C)cc2)cc1

>  <Tested System>
P2Y purinoceptor 14 (Homo sapiens)

>  <Unit String>
%

>  <inhibition>
66

$$$$
>  <Input Smiles>
Cc1ccc(C(=O)Nc2cc(C(=O)O)sc2Oc2ccc(C(F)(F)F)cc2)cc1

>  <Tested System>
P2Y purinoceptor 14 (Homo sapiens)

>  <Unit String>
%

>  <inhibition>
62.6

$$$$
>  <Input Smiles>
Cc1ccc(Oc2sc(C(=O)O)cc2NC(=O)c2ccccc2)cn1

>  <Tested System>
P2Y purinoceptor 14 (Homo sapiens)

>  <Unit String>
%

>  <inhibition>
81.9

$$$$
>  <Input Smiles>
Cc1ccc(C(=O)Nc2cc(C(=O)O)sc2Oc2ccccn2)cc1

>  <Tested System>
P2Y purinoceptor 14 (Homo sapiens)

>  <Unit String>
%

>  <inhibition>
74.9

$$$$
>  <Input Smiles>
COc1ccccc1Oc1sc(C(=O)O)cc1NC(=O)c1ccc(C)cc1

>  <Tested System>
P2Y purinoceptor 14 (Homo sapiens)

>  <Unit String>
%

>  <inhibition>
48.1

$$$$
>  <Input Smiles>
CCCc1ccc(C(=O)Nc2cc(C(=O)O)sc2Oc2ccc(C)nc2)cc1

>  <Tested System>
P2Y purinoceptor 14 (Homo sapiens)

>  <Unit String>
%

>  <inhibition>
44.3

$$$$
>  <Input Smiles>
Cc1ccc(C(=O)Nc2cc(C(=O)O)sc2Oc2cccc(C(F)(F)F)c2)cc1

>  <Tested System>
P2Y purinoceptor 14 (Homo sapiens)

>  <Unit String>
%

>  <inhibition>
52.8

$$$$
>  <Input Smiles>
Cc1ccc(C(=O)Nc2cc(C(=O)O)sc2Oc2ccccc2F)cc1

>  <Tested System>
P2Y purinoceptor 14 (Homo sapiens)

>  <Unit String>
%

>  <inhibition>
66

$$$$
>  <Input Smiles>
CCCc1ccc(Oc2sc(C(=O)O)cc2NC(=O)c2ccc(C)cc2)cc1

>  <Tested System>
P2Y purinoceptor 14 (Homo sapiens)

>  <Unit String>
%

>  <inhibition>
66.3

$$$$
>  <Input Smiles>
Cc1ccc(C(=O)Nc2cc(C(=O)O)sc2Oc2ccncc2)cc1

>  <Tested System>
P2Y purinoceptor 14 (Homo sapiens)

>  <Unit String>
%

>  <inhibition>
43.5

$$$$
>  <Input Smiles>
Cc1ccc(C(=O)Nc2cc(C(=O)O)sc2Oc2ccccc2C)cc1

>  <Tested System>
P2Y purinoceptor 14 (Homo sapiens)

>  <Unit String>
%

>  <inhibition>
45.8

$$$$
>  <Input Smiles>
Cc1ccc(C(=O)Nc2cc(C(=O)O)sc2Oc2ccc(C(C)C)cc2)cc1

>  <Tested System>
P2Y purinoceptor 14 (Homo sapiens)

>  <Unit String>
%

>  <inhibition>
54.3

$$$$
>  <Input Smiles>
Cc1ccc(C(=O)Nc2cc(C(=O)O)sc2Oc2ccc(C)nc2)nc1

>  <Tested System>
P2Y purinoceptor 14 (Homo sapiens)

>  <Unit String>
%

>  <inhibition>
60.1

$$$$
